pIC50 values, listed per item
target: HLA-A*68:02; test: IEDB peptide-MHC binding, purified MHC/competitive/radioactivity; bounds were set here for any values at or beyond the usual limits of such assays; conditions: source organism: Vaccinia virus WR
pIC50: −log10 of the molar value.
Measured Parameter: pIC50

Primary Sequence: ILISLINSLV
Endpoint Value: 6.85
//
Primary Sequence: RVNDLNRMPT
Endpoint Value: 6.20
//
Primary Sequence: NTITTFIPI
Endpoint Value: 8.92
//
Primary Sequence: DLLNVTYNI
Endpoint Value: 6.67
//
Primary Sequence: MLPESDLDKV
Endpoint Value: 6.71
//
Primary Sequence: DVDIPTFNSL
Endpoint Value: 5.52
//
Primary Sequence: RTNDLTALL
Endpoint Value: 7.89
//
Primary Sequence: SVMNFIPII
Endpoint Value: 7.24
//
Primary Sequence: MMNERDVSV
Endpoint Value: 6.25
//
Primary Sequence: RASTTENAA
Endpoint Value: 6.50
//
Primary Sequence: STSPTRTWKV
Endpoint Value: 6.88
//
Primary Sequence: DAEFVMCLEA
Endpoint Value: 5.80
//
Primary Sequence: VTSPLTGNNT
Endpoint Value: 6.29
//
Primary Sequence: IISYIILFIL
Endpoint Value: 5.68
//
Primary Sequence: MLKLFTHDIM
Endpoint Value: 5.70

====

biological target: HLA-A*68:02; assay: IEDB peptide-MHC binding, cellular MHC/competitive/fluorescence; bounds were set here for any values at or beyond the usual limits of such assays; settings: source organism: Vaccinia virus WR

Primary Sequence: GARVIWMDA
Target Entity: HLA-A*68:02
Scale Unit: µM
Value Relation Sign: =
IC50: 12
--
Primary Sequence: VIPDELIDVL
Target Entity: HLA-A*68:02
Scale Unit: µM
Value Relation Sign: =
IC50: 9.26
--
Primary Sequence: DLLLPSTDV
Target Entity: HLA-A*68:02
Scale Unit: µM
Value Relation Sign: =
IC50: 13.3
--
Primary Sequence: SMSQELAEL
Target Entity: HLA-A*68:02
Scale Unit: µM
Value Relation Sign: =
IC50: 42.9
--
Primary Sequence: VLTSVDIET
Target Entity: HLA-A*68:02
Scale Unit: µM
Value Relation Sign: =
IC50: 37.5
--
Primary Sequence: DISVNASKTI
Target Entity: HLA-A*68:02
Scale Unit: µM
Value Relation Sign: =
IC50: 14.5
--
Primary Sequence: GVLHTKFWI
Target Entity: HLA-A*68:02
Scale Unit: µM
Value Relation Sign: =
IC50: 43.9
--
Primary Sequence: VLALYSPPLI
Target Entity: HLA-A*68:02
Scale Unit: µM
Value Relation Sign: =
IC50: 14.4
--
Primary Sequence: ELTSNCTRT
Target Entity: HLA-A*68:02
Scale Unit: µM
Value Relation Sign: ≥
IC50: 70
--
Primary Sequence: LVITYCLVT
Target Entity: HLA-A*68:02
Scale Unit: µM
Value Relation Sign: =
IC50: 5.75
--
Primary Sequence: LTGNNTITT
Target Entity: HLA-A*68:02
Scale Unit: µM
Value Relation Sign: =
IC50: 8.24
--
Primary Sequence: KIQLFSDFTI
Target Entity: HLA-A*68:02
Scale Unit: µM
Value Relation Sign: ≥
IC50: 70
--
Primary Sequence: QVKELGIAI
Target Entity: HLA-A*68:02
Scale Unit: µM
Value Relation Sign: =
IC50: 7.56
--
Primary Sequence: TVDVRNIVT
Target Entity: HLA-A*68:02
Scale Unit: µM
Value Relation Sign: =
IC50: 5.98
--
Primary Sequence: PAHLINKLL
Target Entity: HLA-A*68:02
Scale Unit: µM
Value Relation Sign: =
IC50: 11.2
--
Primary Sequence: GIIITVGMLI
Target Entity: HLA-A*68:02
Scale Unit: µM
Value Relation Sign: =
IC50: 9.2
--
Primary Sequence: KQIMECSRML
Target Entity: HLA-A*68:02
Scale Unit: µM
Value Relation Sign: =
IC50: 7.47
--
Primary Sequence: GIRCVSNLDI
Target Entity: HLA-A*68:02
Scale Unit: µM
Value Relation Sign: ≥
IC50: 70
--
Primary Sequence: AIDRQVSVKL
Target Entity: HLA-A*68:02
Scale Unit: µM
Value Relation Sign: =
IC50: 52.3
--
Primary Sequence: RALKAYFTA
Target Entity: HLA-A*68:02
Scale Unit: µM
Value Relation Sign: =
IC50: 11.4
--
Primary Sequence: LLNVQTLISL
Target Entity: HLA-A*68:02
Scale Unit: µM
Value Relation Sign: =
IC50: 14.5
--
Primary Sequence: IAVFDSKLI
Target Entity: HLA-A*68:02
Scale Unit: µM
Value Relation Sign: =
IC50: 6.79
--
Primary Sequence: RINLLVQYGA
Target Entity: HLA-A*68:02
Scale Unit: µM
Value Relation Sign: =
IC50: 21
--
Primary Sequence: GLCNYGGILI
Target Entity: HLA-A*68:02
Scale Unit: µM
Value Relation Sign: =
IC50: 35.2
--
Primary Sequence: DIMLPESDL
Target Entity: HLA-A*68:02
Scale Unit: µM
Value Relation Sign: =
IC50: 13.4

Ref: the Immune Epitope Database (IEDB)
